Form field: MPC (one value per entry).
- System: Enterococcus faecalis 416
- measurement description: Mutant Prevention Concentration (MPC) determination
- Format: cell-based
- Set-up: unit not given here
- condition label: E. faecalis 416, 10^9 CFU/plate, TSA, 48 hours at 35° C.
property measured: MPC

>  <compound>
N#CC=C1CCN(c2ccc(N3C[C@H](CNC(=O)C(Cl)Cl)OC3=O)cc2F)CC1 [Example 32]

>  <experimental system>
Enterococcus faecalis 416

>  <readout value>
6.25

$$$$
>  <compound>
N#CC=C1CCN(c2ccc(N3C[C@H](CNC(N)=S)OC3=O)cc2F)CC1 [Example 51]

>  <experimental system>
Enterococcus faecalis 416

>  <readout value>
1.56

$$$$
>  <compound>
CC(=O)NC[C@H]1CN(c2ccc(N3CCOCC3)c(F)c2)C(=O)O1 [Linezolid, reference compound]

>  <experimental system>
Enterococcus faecalis 416

>  <readout value>
12.5

$$$$

###

- System: S. aureus MRSA-32 LNZR
- measurement description: MIC determination, linezolid resistant S. aureus MRSA-32 LNZR
- Format: cell-based
- condition label: Staphylococcus aureus, 24 h, read-out: MIC MRSA 32 LNZR
# MIC values compiled below

>  <compound>
CCC(C#N)=C1CCN(c2ccc(N3C[C@H](CNC(=O)C(Cl)Cl)OC3=O)cc2F)CC1

>  <result modifier>
=

>  <MIC, µg/mL>
12.5

$$$$
>  <compound>
N#CC=C1CCN(c2ccc(N3C[C@H](CNC(N)=S)OC3=O)cc2F)CC1

>  <result modifier>
=

>  <MIC, µg/mL>
3.12

$$$$
>  <compound>
COC(=S)NC[C@H]1CN(c2ccc(N3CCC(=CC#N)CC3)c(F)c2)C(=O)O1

>  <result modifier>
=

>  <MIC, µg/mL>
6.25

$$$$
>  <compound>
CC(=S)NC[C@H]1CN(c2ccc(N3CC=C(CC#N)CC3)c(F)c2)C(=O)O1

>  <result modifier>
=

>  <MIC, µg/mL>
6.25

$$$$
>  <compound>
N#CC=C1CCN(c2ccc(N3C[C@H](CNC(=O)C(Cl)Cl)OC3=O)cc2F)CC1

>  <result modifier>
=

>  <MIC, µg/mL>
12.5

$$$$
>  <compound>
N#CC=C1CCN(c2ccc(N3C[C@H](CNC(=O)CCl)OC3=O)cc2F)CC1

>  <result modifier>
=

>  <MIC, µg/mL>
12.5

$$$$
>  <compound>
CC(=S)NC[C@H]1CN(c2ccc(N3CCC(=CC#N)CC3)c(F)c2)C(=O)O1

>  <result modifier>
=

>  <MIC, µg/mL>
3.12

$$$$
>  <compound>
CSC(C#N)=C1CCN(c2ccc(N3C[C@H](CNC(C)=O)OC3=O)cc2F)CC1

>  <result modifier>
=

>  <MIC, µg/mL>
12.5

$$$$
>  <compound>
CC1CN(c2ccc(N3C[C@H](CNC(N)=S)OC3=O)cc2F)CC/C1=C\C#N (stereo partly drawn)

>  <result modifier>
=

>  <MIC, µg/mL>
6.25

$$$$
>  <compound>
COC(=S)NC[C@H]1CN(c2ccc(N3CC/C(=C\C#N)C(C)C3)c(F)c2)C(=O)O1 (stereo partly drawn)

>  <result modifier>
=

>  <MIC, µg/mL>
12.5

$$$$
>  <compound>
N#C/C=C1\CCN(c2ccc(N3C[C@H](CNC(=O)C(F)F)OC3=O)cc2F)CC1F (stereo partly drawn)

>  <result modifier>
=

>  <MIC, µg/mL>
12.5

$$$$
>  <compound>
CC(=O)NC[C@H]1CN(c2ccc(N3CCC(=CC#N)CC3)cc2)C(=O)O1

>  <result modifier>
=

>  <MIC, µg/mL>
25

$$$$
>  <compound>
CC(=S)NC[C@H]1CN(c2ccc(N3CCC(=C(C#N)C(=S)N4CCOCC4)CC3)c(F)c2)C(=O)O1

>  <result modifier>
=

>  <MIC, µg/mL>
6.25

$$$$
>  <compound>
CC(=O)NC[C@H]1CN(c2ccc(N3CCOCC3)c(F)c2)C(=O)O1 [Linezolid, reference compound]

>  <result modifier>
>

>  <MIC, µg/mL>
25

$$$$
>  <compound>
C#CCC(C#N)=C1CCN(c2ccc(N3C[C@H](CNC(C)=O)OC3=O)cc2F)CC1

>  <result modifier>
=

>  <MIC, µg/mL>
12.5

$$$$
>  <compound>
CCC(C#N)=C1CCN(c2ccc(N3C[C@H](CNC(C)=O)OC3=O)cc2F)CC1

>  <result modifier>
=

>  <MIC, µg/mL>
25

$$$$
>  <compound>
CC(=O)NC[C@H]1CN(c2ccc(N3CC/C(=C\C#N)C(F)C3)c(F)c2)C(=O)O1 (stereo partly drawn) [56 (E)]

>  <result modifier>
=

>  <MIC, µg/mL>
12.5

$$$$
>  <compound>
CC(C#N)=C1CCN(c2ccc(N3C[C@H](CNC(=O)C(F)F)OC3=O)cc2F)CC1

>  <result modifier>
=

>  <MIC, µg/mL>
12.5

$$$$
>  <compound>
CC(=S)NC[C@H]1CN(c2ccc(N3CCC(=C(C)C#N)CC3)c(F)c2)C(=O)O1

>  <result modifier>
=

>  <MIC, µg/mL>
1.56

$$$$
>  <compound>
CC(=O)NC[C@H]1CN(c2ccc(N3CC/C(=C/C#N)C(F)C3)c(F)c2)C(=O)O1 (stereo partly drawn) [56 (Z)]

>  <result modifier>
=

>  <MIC, µg/mL>
25

$$$$
>  <compound>
CC(=O)NC[C@H]1CN(c2ccc(N3CCC(=C(C)C#N)CC3)c(F)c2)C(=O)O1

>  <result modifier>
=

>  <MIC, µg/mL>
25

$$$$
>  <compound>
CCC(C#N)=C1CCN(c2ccc(N3C[C@H](CNC(C)=S)OC3=O)cc2F)CC1

>  <result modifier>
=

>  <MIC, µg/mL>
6.25

$$$$
>  <compound>
CC(=S)NC[C@H]1CN(c2ccc(N3CC/C(=C\C#N)C(F)C3)c(F)c2)C(=O)O1 (stereo partly drawn)

>  <result modifier>
=

>  <MIC, µg/mL>
6.25

$$$$
>  <compound>
CC(=O)NC[C@H]1CN(c2ccc(N3CCC(=C(Br)C#N)CC3)c(F)c2)C(=O)O1

>  <result modifier>
=

>  <MIC, µg/mL>
12.5

$$$$

###

>  <compound>
CC(=O)NC[C@H]1CN(c2ccc(N3CC/C(=C\C#N)C(C)C3)c(F)c2)C(=O)O1 (some centres unmarked)

>  <melting point>
152 to 153 °C

$$$$
>  <compound>
CCOC(=O)c1cnnn1CC1CN(c2ccc(N3CCC(=CC#N)CC3)c(F)c2)C(=O)O1 (stereo in doubt)

>  <melting point>
70 to 72 °C

$$$$
>  <compound>
N#CCC1CCN(c2ccc(N3CC(CN=[N+]=[N-])OC3=O)cc2)CC1 (stereo in doubt)

>  <melting point>
85 to 86 °C

$$$$
>  <compound>
N#CC=C1CCN(c2ccc(N3C[C@H](CNC(=O)C4CCCN4)OC3=O)cc2F)CC1 (stereo in doubt)

>  <melting point>
155 °C

$$$$
>  <compound>
CCOC(=O)c1cnnn1C[C@H]1CN(c2ccc(N3CCC(C(C#N)CO)CC3)c(F)c2)C(=O)O1 (some centres unmarked)

>  <melting point>
76 to 78 °C

$$$$
>  <compound>
CC(C#N)=C1CCN(c2ccc(N3C[C@H](CO)OC3=O)cc2F)CC1

>  <melting point>
100 to 102 °C

$$$$
>  <compound>
N#CC=C1CCN(c2ccc(N3C[C@H](CN=C=O)OC3=O)cc2F)CC1 (stereo in doubt)

>  <melting point>
172 to 174 °C

$$$$
>  <compound>
N#CCC1CCN(c2ccc(N3C[C@H](CO)OC3=O)cc2)CC1

>  <melting point>
110 to 112 °C

$$$$

###

MPC by entry:
- Test system: Enterococcus faecalis 416
- measurement description: Mutant Prevention Concentration (MPC) determination
- Type: cell-based
- Design: unit not given here
- condition label: E. faecalis 416, 10^9 CFU/plate, TSA, 48 hours at 35° C.

>  <smiles structure>
CC(=O)NC[C@H]1CN(c2ccc(N3CCC(=CC#N)CC3)c(F)c2)C(=O)O1

>  <experimental system>
Enterococcus faecalis 416

>  <MPC>
6.25

$$$$
>  <smiles structure>
COC(=S)NC[C@H]1CN(c2ccc(N3CCC(=CC#N)CC3)c(F)c2)C(=O)O1

>  <experimental system>
Enterococcus faecalis 416

>  <MPC>
1.56

$$$$
>  <smiles structure>
CC(=O)NC[C@H]1CN(c2ccc(N3CCC(=CC#N)CC3)cc2)C(=O)O1

>  <experimental system>
Enterococcus faecalis 416

>  <MPC>
12.5

$$$$
>  <smiles structure>
C#CCC(C#N)=C1CCN(c2ccc(N3C[C@H](CNC(C)=O)OC3=O)cc2F)CC1

>  <experimental system>
Enterococcus faecalis 416

>  <MPC>
6.25

$$$$
